Origin of measurements: the array DNA melting data of Ke et al. (doi:10.1101/2024.01.08.574731)

assay: folding enthalpy; higher = less favourable; fluorescence melt of hairpins on a sequencing array, two-state fit; settings: sodium 0.088 M
measuredQuantity: folding enthalpy (kcal/mol)
Numbers only here, please. The scale is kcal/mol.

**Query** State the recorded folding enthalpy for this entry: GAAGCCGAAAGGCTTTC ((((((....))).)))
**Result** -11.1

**Query** State the recorded folding enthalpy for this entry: GCGTTCACACGC ((((....))))
**Result** -22.6

**Query** State the recorded folding enthalpy for this entry: GATCTAACCATAGATC ((((((....))))))
**Result** -31.7

**Query** State the recorded folding enthalpy for this entry: CTGGTGAAAACCAG (((((....)))))
**Result** -20.3

**Query** State the recorded folding enthalpy for this entry: GATCCACAAGTGGATC ((((((....))))))
**Result** -38.6

**Query** State the recorded folding enthalpy for this entry: GATCCAGTGATGGATC ((((((....))))))
**Result** -35.2

**Query** State the recorded folding enthalpy for this entry: GATCATTCGTATGATC ((((((....))))))
**Result** -33.3

**Query** State the recorded folding enthalpy for this entry: GGGAAAGGAAACTCTCCC ((((.((....)).))))
**Result** -17.2

**Query** State the recorded folding enthalpy for this entry: GATCGGATATCCGATC ((((((....))))))
**Result** -42.9

**Query** State the recorded folding enthalpy for this entry: GCTCCGCGAAAGCGTAGC (((.(((....))).)))
**Result** -32.6

**Query** State the recorded folding enthalpy for this entry: GAACCAGGAAACTGGCTC ((.((((....)))).))
**Result** -21.8

**Query** State the recorded folding enthalpy for this entry: GCGAGCGAAAGCTGCGC ((((((....))).)))
**Result** -21.8

----------
Please respond with reported folding enthalpy for every item in the list.
assay: folding enthalpy; higher = less favourable; fluorescence melt of hairpins on a sequencing array, two-state fit; details: sodium 0.088 M
Numbers only here, please. The scale is kcal/mol.

**Query** State the recorded folding enthalpy for this entry: TGACTGAAAAGTCA (((((....)))))
**Result** -23.2

**Query** State the recorded folding enthalpy for this entry: GATTCGGGAAACCGAATC (((((((....)))))))
**Result** -47.5

**Query** State the recorded folding enthalpy for this entry: AGCAGGAAACTGCT (((((....)))))
**Result** -22.8

**Query** State the recorded folding enthalpy for this entry: CAACAGAAATGTTG (((((....)))))
**Result** -22.1

**Query** State the recorded folding enthalpy for this entry: GATCACCTGTGTGATC ((((((....))))))
**Result** -37.8

**Query** State the recorded folding enthalpy for this entry: GTAGACGAAAGTCCATAC ((((((....)))..)))
**Result** -10.2

**Query** State the recorded folding enthalpy for this entry: GATCCGCGAAAGCGATC (((.(((....))))))
**Result** -14

**Query** State the recorded folding enthalpy for this entry: GCCTATGGAAACATAAGC ((.((((....)))).))
**Result** -15.6

**Query** State the recorded folding enthalpy for this entry: CGGAACGGAAACGTCCG (((.(((....))))))
**Result** -30.1

**Query** State the recorded folding enthalpy for this entry: GTTCTGCGAAAGCACAAC (((.(((....))).)))
**Result** -12.6

**Query** State the recorded folding enthalpy for this entry: GATCCCGAAAGGGGTATC ((((((....)))..)))
**Result** -11.8

**Query** State the recorded folding enthalpy for this entry: CGCATCGGAAACGAGCG (((.(((....))))))
**Result** -31.8

----------
Please respond with reported folding enthalpy for every item in the list.
test: folding enthalpy; higher = less favourable; fluorescence melt of hairpins on a sequencing array, two-state fit; details: sodium 0.088 M
Numbers only here, please. The scale is kcal/mol.

**Query** State the recorded folding enthalpy for this entry: GATGTGCGAAAGCAAATC (((.(((....))).)))
**Result** -23.3

**Query** State the recorded folding enthalpy for this entry: GCTGCGCGAAAGCACCGC ((.(.((....)).).))
**Result** -21.4

**Query** State the recorded folding enthalpy for this entry: GCGTCGCGAAAGCTCCGC (((..((....))..)))
**Result** -21.1

**Query** State the recorded folding enthalpy for this entry: GCACACGAAAGTGTATGC ((((((....)))..)))
**Result** -15.1

**Query** State the recorded folding enthalpy for this entry: GATCGGTTGACCGATC ((((((....))))))
**Result** -33.9

**Query** State the recorded folding enthalpy for this entry: GTCACTGAAAAGTGAC ((((((....))))))
**Result** -33.2

**Query** State the recorded folding enthalpy for this entry: GCGCACCGAAAGGTTCGC (((.(((....))).)))
**Result** -40.3

**Query** State the recorded folding enthalpy for this entry: GTTAATCGAAAGATAAC (((.(((....))))))
**Result** -16.8

**Query** State the recorded folding enthalpy for this entry: GTAGAACGAAAGTTATAC (((.(((....))).)))
**Result** -33.9

**Query** State the recorded folding enthalpy for this entry: GGGCGTGGAAACACGTCC ((.((((....)))).))
**Result** -36.1

**Query** State the recorded folding enthalpy for this entry: GCATAGCGAAAGCTACGC ((.((((....)))).))
**Result** -20.3

**Query** State the recorded folding enthalpy for this entry: GGATATCCGAAAGGATCC (((..(((....))))))
**Result** -11.4

----------
experiment: melting temperature; fluorescence melt of hairpins on a sequencing array, two-state fit, raised by 9.35 °C to match UV melts; conditions: sodium 0.088 M
Please respond with reported Tm for every item in the list.
Numbers only here, please. The scale is °C.

**Query** State the recorded Tm for this entry: GCGAACGGAAACATTCGC (((((.(....).)))))
**Result** 48.2

**Query** State the recorded Tm for this entry: GGGTACACGAAAGTGCCC (((..(((....))))))
**Result** 48

**Query** State the recorded Tm for this entry: GATCAGTTAACTGATC ((((((....))))))
**Result** 54.4

**Query** State the recorded Tm for this entry: GATCTTGCAAAGATC ((((((...))))))
**Result** 55

**Query** State the recorded Tm for this entry: GTTTCAGGAAACTGAAGC (.(((((....))))).)
**Result** 38.9

**Query** State the recorded Tm for this entry: GGAGTCGAAAGACTGTCC ((((((....)))..)))
**Result** 35.2

----------
assay: melting temperature; fluorescence melt of hairpins on a sequencing array, two-state fit, raised by 9.35 °C to match UV melts; conditions: sodium 0.088 M
The class of a record is decided solely by its measured Tm; consult lo = under 40 °C, med = from 40 °C up to 50 °C, hi = 50 °C and over

**Query** Class (by measured Tm) for GCTTCGCGAAAGCGGGGC ((..(((....)))..))
**Result** hi

**Query** Class (by measured Tm) for GCGCAGCCGAAAGGCCGC (((..(((....))))))
**Result** hi

**Query** Class (by measured Tm) for GCTCACGAAAGTGGTAGC ((((((....)))..)))
**Result** med

**Query** Class (by measured Tm) for GAATCCGGAAACAGATTC (((((.(....).)))))
**Result** lo

**Query** Class (by measured Tm) for GCCGGAGGAAACTCTGGC (((.(((....))).)))
**Result** hi

**Query** Class (by measured Tm) for GATCTGTCAACAGATC ((((((....))))))
**Result** hi

**Query** Class (by measured Tm) for GATCGCTGTTGCGATC ((((((....))))))
**Result** hi

**Query** Class (by measured Tm) for GATCGAGGAAACTTGATC ((((.((....)).))))
**Result** med

**Query** Class (by measured Tm) for GGGTACGAAAGTATCCC ((((((....))).)))
**Result** hi

**Query** Class (by measured Tm) for GTACGCGAAAGCGTTTAC ((((((....)))..)))
**Result** lo

**Query** Class (by measured Tm) for GTACCACGAAAGTGATAC (((.(((....))).)))
**Result** med

**Query** Class (by measured Tm) for GACTTCGGAAACGAAGTC (((((((....)))))))
**Result** hi

**Query** Class (by measured Tm) for GCCGTCGAAAGACCGGC ((((((....))).)))
**Result** hi

**Query** Class (by measured Tm) for GCCCTCGAAAGAGCAGGC ((((((....)))..)))
**Result** med

**Query** Class (by measured Tm) for GATGGAGGAAACTCTATC (((.(((....))).)))
**Result** lo

**Query** Class (by measured Tm) for GCACTGCGAAAGCAGCGC ((.((((....)))).))
**Result** hi

**Query** Class (by measured Tm) for GCAGGCGAAAGCCTATGC ((((((....)))..)))
**Result** med

**Query** Class (by measured Tm) for GATCTAGTAATAGATC ((((((....))))))
**Result** med

**Query** Class (by measured Tm) for GAGATTGGAAACAATTTC ((.((((....)))).))
**Result** lo

**Query** Class (by measured Tm) for GGTTGCGGAAACGCAATC (.(((((....))))).)
**Result** hi

**Query** Class (by measured Tm) for GATCTAAAAGTAGATC ((((((....))))))
**Result** lo
